Test parameters: 293.15 K; 30000 kPa; Liquid; Vibrating tube method
mass density reference

Compound	mass density [kg/m3]
CCC[n+]1cccc(C)c1.O=S(=O)([N-]S(=O)(=O)C(F)(F)F)C(F)(F)F	1476.5
CCC[N+]1(C)CCCC1.O=S(=O)([N-]S(=O)(=O)C(F)(F)F)C(F)(F)F	1459.2
CCCC[N+]1(C)CCCC1.O=S(=O)([N-]S(=O)(=O)C(F)(F)F)C(F)(F)F	1429.6
CCC[N+]1(C)CCCCC1.O=S(=O)([N-]S(=O)(=O)C(F)(F)F)C(F)(F)F	1436.8
CCn1cc[n+](C)c1.O=S(=O)([O-])C(F)(F)F [1-ethyl-3-methylimidazolium trifluoromethanesulfonate]	1396.4
